Numbers sourced from the nanobody polyreactivity screen of Harvey et al. (2022).

- Assay info: yeast display, Sf9 membrane polyspecificity reagent, FACS + sequencing; frameworks hold sequencing errors
Observable: polyreactivity (PSR sort gate)

QVQLVESGGGLVQAGGSLRLSCAASGSIFAYYTMGWYRQAPGNERELVATISSGDITNYADSVKGRFTISRDNAKNTVYLQMNSLKPEDTAVYYCAAAELTSYYRTFIHQDYDYWGQGTQVTVSS; low polyreactivity
QVQHVESGLGLDQAAGSLRLSSAASGFIFWYSSMGWYREARGKERELVAAITGGAITYYADSVKGRFTITRDNAKNTVYLPMNSLIPEDTAVYYGADELTLGRFRYDYWGQGTQVTVSA; high polyreactivity
QDQLVESGGGLVQAGGSLRLSCAASGSTFTPNALGWYRQPPGKQRELVAAISTRGSSTYYADSVKGRFTISRDNAKNTVYLQMNRLKPEDTAVYSCAAPFKYGLSYGSWYGYCGQGTQVTVSS; high polyreactivity
QVQLVESGGGLVQAGGSLRLSCAASGSTFVIYGMGWYRQAPGKERELVADITWIGGSTYYADSVKGRFTISRDNAKNTVYLQMNSLKPEDTAVYYCAADAAYLYLYNWYDTEDDYWGQGTQVTVSS; low polyreactivity

Req: Kindly indicate its recorded polyreactivity (PSR sort gate). Item: QVQLVESGGGLVQAGGSLRLSCAASGFIFRYYAMGWSRQAPGKERELVAAITSGGRTSYADSVKGRFTISRDNAKNTVYLQMNSLKPEDTAVYYCAKDSYRQRYGSMEYWGQGTQVTVSS
Resp: high polyreactivity

---

- Assay info: yeast display, Sf9 membrane polyspecificity reagent, FACS + sequencing; frameworks hold sequencing errors
Observable: polyreactivity (PSR sort gate)

QVQLVESGGGLVQAGGSLRLSCAASGLIFFWYTMGWYRQAPGKERELVAAISGSGTGTYYADSVKGRFTISRDNAKNTVYLQMNSLIPEDTAVYYCATDYVYRGYLMNYWGQGTQVTVSS; high polyreactivity
QVQLVESGGRLVQAGCSLRLSCAASGSIFDVYAMGWYRPAPGKERELVAAISRGGRTYYADSVKGRFTISRDNAKNTVYLQMNSLKPEDTAVYYCAAVTRLDGNMDYWGQGTQVTVSS; high polyreactivity
QVQLVESGGGLVQAGGSLRLSCAASGSIFYGNAMGWYRQAPGNERESVAGITGSGSRTYYADSVKGRFTISRDNAKITVYLQMNSLKAEDTAVYYCARLTRTSRGLYDYWGQGTQVTVSS; high polyreactivity
QVQLVESGGGLVQAGGSLRLSCAASGITFLPYAMGWYRQAPGKERELVAAISWRGGRTYYADSVKGRFTISRDNAKNTVYLQMNSLKPEDTAVYYCAAVLVRKSGITYDYWGQGTQVTVSS; high polyreactivity

---

- Assay info: yeast display, Sf9 membrane polyspecificity reagent, FACS + sequencing; frameworks hold sequencing errors
Observable: polyreactivity (PSR sort gate)

QVQLVESGGGLVQAGGSLRLSCAASGIIIGNNAMGWYRQAPGKERELVAPISRRGGSTYYADSVKGRFTISRDNAKNTVYLQMNSLKPEYTAVYYCAADIYRYNSYDYWGQGTQVTVSS; low polyreactivity
QVQLVESGGGLVQAGGSLRLSCAASGSILIWNTMGWDRQAPGKDRELVAAISSGGSTYYADSVKGRFTISRDNAKNTVYLQMNSLKPEDTAVYYCNVDLPRVLTDDSWGQGTHVTVSS; low polyreactivity
